- Test system: Plasmodium berghei
- ASSAY_NOTES: Screen against P. berghei liver stage (PbLuc), transformed with Luciferase, at 10uM
- Assay type: functional, HepG2
- ASSAY_CONDITIONS: tested at 10 uM
Out of some 69,000 compounds screened, about 8,600 (12%) showed an effect of 50% or more. The sample as a whole holds a higher share of strong results than the screen did.
OBSERVED_PROPERTY: INHIBITION (%)
Your answer should be a plain number; it is taken to be in %.

Entry Cc1nocc1C(=O)N1CCOC2(COCCN(CC3CC3)C2)C1 (stereo unspecified) , INHIBITION reported as 1.7

In plain terms, COCCCNS(=O)(=O)c1cccc(CSC)c1 has a documented INHIBITION of -15.7

The reported value for O=C(c1ccco1)N1CCCC2(CN(Cc3cccs3)CCO2)C1 (stereo unspecified) in terms of INHIBITION is 2.02

Value of INHIBITION reported for the molecule CN(C)C[C@H]1OC[C@@H]2CCN(C(=O)NCc3cccc(F)c3)C[C@@H]21 is 61.9

Record COCCN1CCOCC2(C1)CN(C(=O)c1conc1C)CCO2 (stereo unspecified) , field INHIBITION: 53.4

INHIBITION reading for COCCN1CCC2(CC1)CN(C(=O)c1ccco1)CCO2 : 51.9

Lab note: CCC(NC1CSCCSC1)c1ccc(S(C)(=O)=O)cc1 (stereo unspecified) gave INHIBITION of 29.4

molecule CC(NCCCn1cccn1)c1ccc(N2CCCS2(=O)=O)cc1 (stereo unspecified) , INHIBITION observed: 5.58
